B1: PPFIA4 (parent)
chain: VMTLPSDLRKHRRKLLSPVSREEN

variants of: B1; experiment: protein stability index of a GFP-peptide fusion (GPS, HEK-293T) (PSI 1-6); higher = more stable; details: c terminus: a fixed tail appended;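 also: lentivirally expressed fusions sorted by FACS into six bins by GFP to DsRed ratio, PSI derived from sequencing read proportions per bin multiplied by bin number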
I'd be grateful if you could share measured protein stability index for these entries.
One number for each entry.

{"columns": ["mutation_name", "readout_kind", "endpoint_value"],
 "data": [
  ["R21Q", "protein stability index", 4.36]
]}

Hi! Can you tell me protein stability index for each of these variants?
1. L8S
2. K10Q
3. T3E
4. N24L
5. N24Q
6. R9F

**Result**
1: 4.73; 2: 4.29; 3: 3.51; 4: 2.94; 5: 4.05; 6: 3.31
